- target-entity: human κ opioid receptor (OPRK1) (Homo sapiens)
- Construct: expressed in transfected cells; host or cells: CHO-K1
- Sequence (P41145 whole entry): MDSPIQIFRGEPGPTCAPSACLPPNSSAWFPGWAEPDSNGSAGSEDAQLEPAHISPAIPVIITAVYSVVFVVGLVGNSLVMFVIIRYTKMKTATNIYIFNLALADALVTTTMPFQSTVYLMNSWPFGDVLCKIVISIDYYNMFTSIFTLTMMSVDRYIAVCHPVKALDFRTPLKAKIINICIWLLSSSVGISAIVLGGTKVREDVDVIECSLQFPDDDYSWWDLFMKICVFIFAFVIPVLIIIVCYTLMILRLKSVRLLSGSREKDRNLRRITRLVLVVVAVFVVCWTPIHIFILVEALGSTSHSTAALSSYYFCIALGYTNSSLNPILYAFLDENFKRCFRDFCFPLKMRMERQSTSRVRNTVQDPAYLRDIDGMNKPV
- procedure-text: Determination of activities of κ receptor agonists: inhibition of forskolin-stimulated cAMP release (HTRF) in stably transfected CHO-K1 cells
- Format: cell-based
- cond: relative to Difelikefalin = 100.0
Bridge positions count the residues as written; N and C are the ends. Square brackets hold non-standard residues; d marks the D form. Side chains are listed from the residue outwards. Peptide text beside a SMILES is read from it. I, II: the chains in the order shown. * marks the point of attachment. X12 = CCOc1ccc(C[C@@H](NC(=O)[C@H](N)Cc2ccccc2)C(=O)*)cc1; Piperidin1yl(4-NH2,4-COOH) = NC1(C(=O)O)CCN(*)CC1; X10 = NCCCC[C@@H](NC(=O)C1(N)CCN(*)CC1)C(=O)O; X1 = NCCCC[C@@H](NC(=O)C1(N)CCN(*)CC1)C(N)=O; Trifluoroethyl = FC(F)(F)C*; Api = NC1(C(=O)O)CCNCC1; iPr = CC(C)*
readout-kind: Relative Activity % (%)
Give bare numbers, in %.

Worked set:
CC(C)C[C@@H](NC(=O)[C@@H](Cc1ccc(OC(C)C)cc1)NC(=O)[C@H](N)Cc1ccccc1)C(=O)N[C@H](CCCCN)C(=O)N1CCC(N)(C(=O)N[C@H](CCCCN)C(N)=O)CC1 [Compound 101] (H-[dF][dY](iPr)[dL][dK]-X1; N-terminus assumed) = 834.1
CC(C)C[C@@H](NC(=O)[C@@H](Cc1ccc(OCC(F)(F)F)cc1)NC(=O)[C@H](N)Cc1ccccc1)C(=O)N[C@H](CCCCN)C(=O)N1CCC(N)(C(=O)O)CC1 [Compound 92] (H-[dF][dY](Trifluoroethyl)[dL][dK]-{Piperidin1yl(4-NH2,4-COOH)}; N-terminus assumed) = 558.6

I'm hoping you can list Relative Activity % for every compound here, please.
1. CCOc1ccc(C[C@@H](NC(=O)[C@H](N)Cc2ccccc2)C(=O)N[C@H](CC(C)C)C(=O)N[C@H](CCCCN)C(=O)N2CCC(N)(C(=O)NCC(=O)NCC(=O)N[C@@H](CCCCN)C(N)=O)CC2)cc1 [Compound 51] (I: H-[Api]GGK-NH2 / II: H-[dF][dY](Et)[dL][dK]; amide I:1-II:C; N-terminus assumed)
2. CC(C)C[C@@H](NC(=O)[C@@H](Cc1ccc(I)cc1)NC(=O)[C@H](N)Cc1ccccc1)C(=O)N[C@H](CCCCN)C(=O)N1CCC(N)(C(=O)N[C@@H](CCCCN)C(N)=O)CC1
3. CC(C)C[C@@H](NC(=O)[C@@H](Cc1ccc(OCC(F)(F)F)cc1)NC(=O)[C@H](N)Cc1ccccc1)C(=O)N[C@H](CCCCN)C(=O)N1CCC(N)(C(=O)N[C@H](CCCCN)C(=O)O)CC1 [Compound 96] (H-[dF][dY](Trifluoroethyl)[dL][dK]-X10; N-terminus assumed)
4. CCOc1ccc(C[C@@H](NC(=O)[C@H](N)Cc2ccccc2)C(=O)N[C@H](CC(C)C)C(=O)N[C@H](CCCCN)C(=O)N2CCC(N)(C(=O)N[C@H](CCCCN)C(=O)N[C@H](CCCCN)C(=O)N[C@H](CCCCN)C(=O)N[C@H](CCCCN)C(N)=O)CC2)cc1 [Compound 21] (H-[Api]([dK-dL-X12])[dK][dK][dK][dK]-NH2; N-terminus assumed)

A.
[1273.0, 1135.0, 1229.1, 1212.0]

Q. Given the entry CC(C)C[C@@H](NC(=O)[C@@H](Cc1ccc(Cl)cc1)NC(=O)[C@H](N)Cc1ccccc1)C(=O)N[C@H](CCCCN)C(=O)N1CCC(N)(C(=O)N[C@H](CCCCN)C(=O)O)CC1 , what Relative Activity % was observed with human κ opioid receptor (OPRK1) (Homo sapiens)?
A. 1179.0

###

- target-entity: human κ opioid receptor (OPRK1) (Homo sapiens)
- Construct: expressed in transfected cells; host or cells: CHO-K1
- procedure-text: Determination of activities of κ receptor agonists: inhibition of forskolin-stimulated cAMP release (HTRF) in stably transfected CHO-K1 cells
- Assay type: cell-based
- cond: relative to Difelikefalin = 100.0
Square brackets hold non-standard residues; d marks the D form. Side chains are listed from the residue outwards. Peptide text beside a SMILES is read from it. * marks the point of attachment. X28 = NCCCC[C@H](NC(=O)[C@H](CCCCN)NC(=O)C1(N)CCN(*)CC1)C(=O)O; X12 = CCOc1ccc(C[C@@H](NC(=O)[C@H](N)Cc2ccccc2)C(=O)*)cc1; Api = NC1(C(=O)O)CCNCC1
readout-kind: Relative Activity % (%)
Give bare numbers, in %.

CCOc1ccc(C[C@@H](NC(=O)[C@H](N)Cc2ccccc2)C(=O)N[C@H](CC(C)C)C(=O)N[C@H](CCCCN)C(=O)N2CCC(N)(C(=O)N[C@@H](CCCCN)C(=O)N[C@@H](CCCCN)C(=O)O)CC2)cc1 [Compound 6] (H-[dF][dY](Et)[dL][dK]-X28; N-terminus assumed) = 1510.4

Now examine the next entry.
Q. // lookup Relative Activity % | system=human κ opioid receptor (OPRK1) (Homo sapiens) | key= CCOc1ccc(C[C@@H](NC(=O)[C@H](N)Cc2ccccc2)C(=O)N[C@H](CC(C)C)C(=O)N[C@H](CCCCN)C(=O)N2CCC(N)(C(=O)NCC(=O)NCC(=O)NCC(=O)NCC(=O)NCC(=O)N[C@H](CCCCN)C(N)=O)CC2)cc1 [Compound 65] (H-[Api]([dK-dL-X12])GGGGG[dK]-NH2; N-terminus assumed)
A. 686.9

###

- target-entity: human κ opioid receptor (OPRK1) (Homo sapiens)
- Construct: expressed in transfected cells; host or cells: CHO-K1
- procedure-text: Determination of activities of κ receptor agonists: inhibition of forskolin-stimulated cAMP release (HTRF) in stably transfected CHO-K1 cells
- Assay type: cell-based
- cond: relative to Difelikefalin = 100.0
Square brackets hold non-standard residues; d marks the D form. Side chains are listed from the residue outwards. Peptide text beside a SMILES is read from it. * marks the point of attachment. X12 = CCOc1ccc(C[C@@H](NC(=O)[C@H](N)Cc2ccccc2)C(=O)*)cc1; X5 = NCCCC[C@@H](NC(=O)CNC(=O)C1(N)CCN(*)CC1)C(N)=O; Piperidinyl(4-NH2,4-CONH2) = NC(=O)C1(N)CCN(*)CC1; X10 = NCCCC[C@@H](NC(=O)C1(N)CCN(*)CC1)C(=O)O; Trifluoroethyl = FC(F)(F)C*; Api = NC1(C(=O)O)CCNCC1
I'd be grateful if you could share measured Relative Activity % for these entries.
Give bare numbers, in %.

Solved entries:
CC(C)C[C@@H](NC(=O)[C@@H](Cc1ccc(I)cc1)NC(=O)[C@H](N)Cc1ccccc1)C(=O)N[C@H](CCCCN)C(=O)N1CCC(N)(C(=O)N[C@H](CCCCN)C(N)=O)CC1 = 1104.0
CC(C)C[C@@H](NC(=O)[C@@H](Cc1ccc(OCC(F)(F)F)cc1)NC(=O)[C@H](N)Cc1ccccc1)C(=O)N[C@H](CCCCN)C(=O)N1CCC(N)(C(N)=O)CC1 [Compound 91] (H-[dF][dY](Trifluoroethyl)[dL][dK]-{Piperidinyl(4-NH2,4-CONH2)}; N-terminus assumed) = 550.0
CC(C)C[C@@H](NC(=O)[C@@H](Cc1ccc(F)cc1)NC(=O)[C@H](N)Cc1ccccc1)C(=O)N[C@H](CCCCN)C(=O)N1CCC(N)(C(=O)N[C@@H](CCCCN)C(N)=O)CC1 = 762.8
CCOc1ccc(C[C@@H](NC(=O)[C@H](N)Cc2ccccc2)C(=O)N[C@H](CC(C)C)C(=O)N[C@H](CCCCN)C(=O)N2CCC(N)(C(=O)NCC(=O)NCC(=O)NCC(=O)N[C@H](CCCCN)C(=O)O)CC2)cc1 [Compound 58] (H-[Api]([dK-dL-X12])GGG[dK]-OH; N-terminus assumed) = 1179.0
CCOc1ccc(C[C@@H](NC(=O)[C@H](N)Cc2ccccc2)C(=O)N[C@H](CC(C)C)C(=O)N[C@H](CCCCN)C(=O)N2CCC(N)(C(=O)N[C@H](CCCCN)C(=O)O)CC2)cc1 [Compound 16] (H-[dF][dY](Et)[dL][dK]-X10; N-terminus assumed) = 1408.8

Give Relative Activity % for each listed item.
1. CCOc1ccc(C[C@@H](NC(=O)[C@H](N)Cc2ccccc2)C(=O)N[C@H](CC(C)C)C(=O)N[C@H](CCCCN)C(=O)N2CCC(N)(C(=O)NCC(=O)N[C@H](CCCCN)C(N)=O)CC2)cc1 [Compound 49] (H-[dF][dY](Et)[dL][dK]-X5; N-terminus assumed)
2. CC(C)C[C@@H](NC(=O)[C@@H](Cc1ccc(I)cc1)NC(=O)[C@H](N)Cc1ccccc1)C(=O)N[C@H](CCCCN)C(=O)N1CCC(N)(C(N)=O)CC1
3. CC(C)C[C@@H](NC(=O)[C@@H](Cc1ccc(Br)cc1)NC(=O)[C@H](N)Cc1ccccc1)C(=O)N[C@H](CCCCN)C(=O)N1CCC(N)(C(=O)O)CC1

A.
1. 1364.5
2. 496.1
3. 448.1
